- TEST PROTOCOL: Stability test of analytes in rat plasma (QC samples)
- Assay type: physicochemical
- TEST PARAMETERS: high concentration, three freeze-thaw cycles
RESULT TYPE: Freeze-Thaw Stability RE (%)
Answers are plain numbers, in %.

Sample answers from the record:
O=C1C[C@@H](c2ccc(O[C@@H]3O[C@H](CO)[C@@H](O)[C@H](O)[C@H]3O)cc2)Oc2cc(O)ccc21 [LQ, liquiritin]: 7.92
O=C(/C=C/c1ccc(O)cc1)c1ccc(O)cc1O [ILG, isoliquiritigenin]: 7.59
CC1(C)[C@@H](O[C@H]2O[C@H](C(=O)O)[C@@H](O)[C@H](O)[C@H]2O[C@@H]2O[C@H](C(=O)O)[C@@H](O)[C@H](O)[C@H]2O)CC[C@]2(C)[C@H]3C(=O)C=C4[C@@H]5C[C@@](C)(C(=O)O)CC[C@]5(C)CC[C@@]4(C)[C@]3(C)CC[C@@H]12 [GL, glycyrrhizin]: 14.36

I would be grateful if you could provide Freeze-Thaw Stability RE for each of the following entries.
1. O=c1ccc2ccc(O)c(O)c2o1 [DPH, daphnetin]
2. O=c1ccc2ccc(O)cc2o1 [HDC, 7-hydroxycoumarin]
3. O=C1C[C@@H](c2ccc(O)cc2)Oc2cc(O)ccc21 [LG, liquiritigenin]
4. O=C(/C=C/c1ccc(O[C@@H]2O[C@H](CO)[C@@H](O)[C@H](O)[C@H]2O)cc1)c1ccc(O)cc1O [ILQ, isoliquiritin]
5. COc1cc2cc(Oc3ccc4ccc(=O)oc4c3)c(=O)oc2cc1O [DR, daphnoretin]

Response given:
1. −14.04
2. 2.64
3. 6.75
4. 4.51
5. −9.71

###

- TEST PROTOCOL: Stability test of analytes in rat plasma (QC samples)
- Format: physicochemical
- TEST PARAMETERS: low concentration, −80 °C for a week
RESULT TYPE: Long-Term Stability RE (%)
Give bare numbers, in %.

Worked cases, Long-Term Stability RE given:
O=C1C[C@@H](c2ccc(O)cc2)Oc2cc(O)ccc21: 2.87
O=c1ccc2ccc(O)cc2o1 [HDC, 7-hydroxycoumarin]: −10.07
O=c1ccc2ccc(O)c(O)c2o1: −12.07
COc1cc2cc(Oc3ccc4ccc(=O)oc4c3)c(=O)oc2cc1O: −12.79
CC1(C)[C@@H](O)CC[C@]2(C)[C@H]3C(=O)C=C4[C@@H]5C[C@@](C)(C(=O)O)CC[C@]5(C)CC[C@@]4(C)[C@]3(C)CC[C@@H]12: 0.04

Return reported Long-Term Stability RE values for all items listed beneath this line.
1. CC1(C)[C@@H](O[C@H]2O[C@H](C(=O)O)[C@@H](O)[C@H](O)[C@H]2O[C@@H]2O[C@H](C(=O)O)[C@@H](O)[C@H](O)[C@H]2O)CC[C@]2(C)[C@H]3C(=O)C=C4[C@@H]5C[C@@](C)(C(=O)O)CC[C@]5(C)CC[C@@]4(C)[C@]3(C)CC[C@@H]12
2. O=C(/C=C/c1ccc(O)cc1)c1ccc(O)cc1O
3. O=C(/C=C/c1ccc(O[C@@H]2O[C@H](CO)[C@@H](O)[C@H](O)[C@H]2O)cc1)c1ccc(O)cc1O
4. O=C1C[C@@H](c2ccc(O[C@@H]3O[C@H](CO)[C@@H](O)[C@H](O)[C@H]3O)cc2)Oc2cc(O)ccc21

Response given:
1: 11.48; 2: −11.29; 3: 7.49; 4: 8.14

###

- TEST PROTOCOL: Stability test of analytes in rat plasma (QC samples)
- Type: physicochemical
- TEST PARAMETERS: low concentration, three freeze-thaw cycles
For each entry below, report its Freeze-Thaw Stability RE value.
Give bare numbers, in %.

Observe how each entry below is paired with its result.
O=C1C[C@@H](c2ccc(O)cc2)Oc2cc(O)ccc21: 7.22
O=C(/C=C/c1ccc(O)cc1)c1ccc(O)cc1O: 2.53

Respectfully, I request Freeze-Thaw Stability RE for each entry included below.
1. COc1cc2cc(Oc3ccc4ccc(=O)oc4c3)c(=O)oc2cc1O
2. O=c1ccc2ccc(O)c(O)c2o1
3. CC1(C)[C@@H](O[C@H]2O[C@H](C(=O)O)[C@@H](O)[C@H](O)[C@H]2O[C@@H]2O[C@H](C(=O)O)[C@@H](O)[C@H](O)[C@H]2O)CC[C@]2(C)[C@H]3C(=O)C=C4[C@@H]5C[C@@](C)(C(=O)O)CC[C@]5(C)CC[C@@]4(C)[C@]3(C)CC[C@@H]12
4. O=C1C[C@@H](c2ccc(O[C@@H]3O[C@H](CO)[C@@H](O)[C@H](O)[C@H]3O)cc2)Oc2cc(O)ccc21
5. O=C(/C=C/c1ccc(O[C@@H]2O[C@H](CO)[C@@H](O)[C@H](O)[C@H]2O)cc1)c1ccc(O)cc1O
6. O=c1ccc2ccc(O)cc2o1 [HDC, 7-hydroxycoumarin]

Response given:
1. 0.05
2. −6.29
3. 10.89
4. 13.76
5. −2.51
6. −13.48

###

- TEST PROTOCOL: Stability test of analytes in rat plasma (QC samples)
- Assay type: physicochemical
- TEST PARAMETERS: middle concentration, three freeze-thaw cycles
RESULT TYPE: Freeze-Thaw Stability RE (%)
Answers are plain numbers, in %.

Solved cases below.
O=C1C[C@@H](c2ccc(O[C@@H]3O[C@H](CO)[C@@H](O)[C@H](O)[C@H]3O)cc2)Oc2cc(O)ccc21: −5.95
O=C(/C=C/c1ccc(O[C@@H]2O[C@H](CO)[C@@H](O)[C@H](O)[C@H]2O)cc1)c1ccc(O)cc1O: −6.3
O=c1ccc2ccc(O)cc2o1 [HDC, 7-hydroxycoumarin]: −1.27
COc1cc2cc(Oc3ccc4ccc(=O)oc4c3)c(=O)oc2cc1O: −14.22
CC1(C)[C@@H](O[C@H]2O[C@H](C(=O)O)[C@@H](O)[C@H](O)[C@H]2O[C@@H]2O[C@H](C(=O)O)[C@@H](O)[C@H](O)[C@H]2O)CC[C@]2(C)[C@H]3C(=O)C=C4[C@@H]5C[C@@](C)(C(=O)O)CC[C@]5(C)CC[C@@]4(C)[C@]3(C)CC[C@@H]12: 14.3
O=c1ccc2ccc(O)c(O)c2o1: −8.25
O=C1C[C@@H](c2ccc(O)cc2)Oc2cc(O)ccc21: 7.96

Attention now shifts to the item below.
Challenge: Tell me Freeze-Thaw Stability RE reported for `O=C(/C=C/c1ccc(O)cc1)c1ccc(O)cc1O`
Response given: 12.3

###

- TEST PROTOCOL: Stability test of analytes in rat plasma (QC samples)
- Assay type: physicochemical
- TEST PARAMETERS: high concentration, −80 °C for a week
Task for the reader: assign each of the following molecules its reported Long-Term Stability RE.
Answers are plain numbers, in %.

CC1(C)[C@@H](O)CC[C@]2(C)[C@H]3C(=O)C=C4[C@@H]5C[C@@](C)(C(=O)O)CC[C@]5(C)CC[C@@]4(C)[C@]3(C)CC[C@@H]12: 9.57

Dear reader, for each entry below, please note its Long-Term Stability RE.
1. O=c1ccc2ccc(O)c(O)c2o1
2. O=c1ccc2ccc(O)cc2o1 [HDC, 7-hydroxycoumarin]
3. O=C1C[C@@H](c2ccc(O)cc2)Oc2cc(O)ccc21
4. O=C1C[C@@H](c2ccc(O[C@@H]3O[C@H](CO)[C@@H](O)[C@H](O)[C@H]3O)cc2)Oc2cc(O)ccc21
5. O=C(/C=C/c1ccc(O[C@@H]2O[C@H](CO)[C@@H](O)[C@H](O)[C@H]2O)cc1)c1ccc(O)cc1O
6. COc1cc2cc(Oc3ccc4ccc(=O)oc4c3)c(=O)oc2cc1O
7. CC1(C)[C@@H](O[C@H]2O[C@H](C(=O)O)[C@@H](O)[C@H](O)[C@H]2O[C@@H]2O[C@H](C(=O)O)[C@@H](O)[C@H](O)[C@H]2O)CC[C@]2(C)[C@H]3C(=O)C=C4[C@@H]5C[C@@](C)(C(=O)O)CC[C@]5(C)CC[C@@]4(C)[C@]3(C)CC[C@@H]12

Response given:
1: −12.23; 2: −0.05; 3: 3.89; 4: 7.57; 5: 2.66; 6: −13.85; 7: 9.2

Challenge: Look up Long-Term Stability RE of `O=C(/C=C/c1ccc(O)cc1)c1ccc(O)cc1O` and report it.
Response given: 13.23

###

- TEST PROTOCOL: Stability test of analytes in rat plasma (QC samples)
- Assay type: physicochemical
- TEST PARAMETERS: high concentration, autosampler at 4 °C for 24 h
Kindly supply the reported 24 h Stability RE values for the records listed here.
One number for each entry, in %.

I'm hoping you can list 24 h Stability RE for every compound here, please.
1. COc1cc2cc(Oc3ccc4ccc(=O)oc4c3)c(=O)oc2cc1O
2. O=c1ccc2ccc(O)c(O)c2o1
3. CC1(C)[C@@H](O[C@H]2O[C@H](C(=O)O)[C@@H](O)[C@H](O)[C@H]2O[C@@H]2O[C@H](C(=O)O)[C@@H](O)[C@H](O)[C@H]2O)CC[C@]2(C)[C@H]3C(=O)C=C4[C@@H]5C[C@@](C)(C(=O)O)CC[C@]5(C)CC[C@@]4(C)[C@]3(C)CC[C@@H]12
4. O=C1C[C@@H](c2ccc(O)cc2)Oc2cc(O)ccc21

Response given:
1: −6.11; 2: −11.8; 3: 13.22; 4: 8.56
